- target_desc: histamine activation of adenylate cyclase
- protocol_text: inhibition of histamine activation of adenylate cyclase in vesicles from guinea pig cerebral cortex
- condition_set: 50 micromolar histamine, 3H-cyclic AMP synthesis
quantity: IC50

Task: Value wanted: IC50 (histamine activation of adenylate cyclase) of entry Cc1nc2n(n1)C(N1CCN(C)CC1)=Nc1ccccc1C2.O=C(O)/C=C\C(=O)O [Example 1, monomaleate]
Result: ~300 nM
